B1: HEEH_KT_rd6_3632 (parent)
chain: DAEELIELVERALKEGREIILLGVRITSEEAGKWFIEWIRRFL

- Variants of: B1
- test method notes: folding stability dG (cDNA display proteolysis); higher = more stable
- reported conditions: PBS, room temperature
observation type: folding stability dG (kcal/mol)
// return numeric value only (unit: kcal/mol, not printed)

Completed entries (count: 5):
[[record]]
sequence_entry = "DAPELIELVERALKEGREIILLGVRITSEEAGKWFIEWIRRFL"
observation_type = "folding stability dG"
unit_descriptor = "kcal/mol"
readout_value = 3.46

[[record]]
sequence_entry = "DAEELIELVERALKEGREIILLGVRITSEEAGKWFMEWIRRFL"
observation_type = "folding stability dG"
unit_descriptor = "kcal/mol"
readout_value = 3.37

[[record]]
sequence_entry = "DAEELIELVERALKEGREIILLGVRITSEEAGKTFIEWIRRFL"
observation_type = "folding stability dG"
unit_descriptor = "kcal/mol"
readout_value = 3.45

[[record]]
sequence_entry = "DAEELIELVERDLKEGREIILLGVRITSEEAGKWFIEWIRRFL"
observation_type = "folding stability dG"
unit_descriptor = "kcal/mol"
readout_value = 2.84

[[record]]
sequence_entry = "DAEELIEYVERALKEGREIILLGVRITSEEAGKWFIEWIRRFL"
observation_type = "folding stability dG"
unit_descriptor = "kcal/mol"
readout_value = 3.49


Which folding stability dG is reported for this variant? `DAEELIELVERALKEGREIILLGVRITKEEAGKWFIEWIRRFL`
3.17

What value of folding stability dG has been recorded for this entry: `DAEELIELVERALKEMREIILLGVRITSEEAGKWFIEWIRRFL`
4.09

What value of folding stability dG has been reported for the following variant? `DAEELINLVERALKEGREIILLGVRITSEEAGKWFIEWIRRFL`
3.89

What value of folding stability dG has been recorded for this entry: `DAEELITLVERALKEGREIILLGVRITSEEAGKWFIEWIRRFL`
3.82

Any idea what its folding stability dG is? The variant is `DAHELIELVERALKEGREIILLGVRITSEEAGKWFIEWIRRFL`
4.02
